Cited source: the nanobody polyreactivity screen of Harvey et al. (2022)

Assay: yeast display, Sf9 membrane polyspecificity reagent, FACS + sequencing; frameworks hold sequencing errors
Measured Property: polyreactivity (PSR sort gate)

QVQLVESGGGLVQAGGSLRLSCAASGRIFKGYVMGWYRQAPGKERELVAAISKSGGRTYYADPVKGRFTISRDNAKNTVYLQMNSLKPEDTAVYYCNAVGVVTYSFYYWGQGTQVTVSS | high polyreactivity
QVQLVESGGGLVQAGGSLRLSCAPSGRTFQQYAMGCYRQAPGKDREFVAAITFSGGTTYFADSVKGRFTISRDNAKNTVYFQMNSLKPEDTAVYYCAADIYYWSFYYSRYDYWGQGTQVTVSS | high polyreactivity
QVQLVESGGGLVQAGGSLRLSCAASGRIFGYNAMGWYRHAPGTERELVAAITNGGSTNYADSVKGRFTISRDNAKNTVYLQMNSLKPEDTAVYYCAADRGGLRWFWQVLYDYWGQGTQVTVSS | low polyreactivity
QVQLVESGGGLVKAGGSLRLISAATGSIFTFYAMGWYRQAPGKERELVATINRIGGNTYYADSVKGRFTISRDNAKNTVYLQMNSLKPEDTAVYYCAAKPTDRGYGYGSWGQGTQVSVSS | low polyreactivity

Alright, here's another sequence for you.
*Q* Entry QVHLVESGGVLVQAGGSLRLSCAASGIALLYYTMGWYRQAPGKERELVAAINSGGRTYYADSVKGRYTISRDNAKNTGYLQMNSLKPDDTAVYFCAAHGGADHMDYWGQGTQVTVSS needs its polyreactivity (PSR sort gate) filled in; supply it.
*A* high polyreactivity

###

Experiment: yeast display, Sf9 membrane polyspecificity reagent, FACS + sequencing; frameworks hold sequencing errors
Measured Property: polyreactivity (PSR sort gate)

QVQLVESGGGLVQAGGSLRLSCAASGRIFYWNVMGWYRQAPGKERELVAAISSSGASTSYADSVKGRFTISRDNAKNTVYLQMNSLKPEDTAVYHCAARTRRNYRQYNYWGQGTQVTVSS | high polyreactivity
QVQLVESGGGLVQAGGSLRLSCAASGSIFYTYAMGWYRQAPGKERELVAAISRSGGSTYYADSVKGRFTISRDNAKNTVYLQMNSLKPEDTAVYYCAARPPYRVGIVPLGRREYYWGQGTQVTVSS | high polyreactivity
QVQLVESGGGLVQAGGSLRLSCAASGNTFYRNAMGWYRQAPGKDRELVAAIDYGGSTTYYADSVKGRFTISRDNSKNTVYLQMNSLKPEDTAVYYCAAREYRIGHVQPMDYWGQGTQVTVSS | high polyreactivity

###

Test: yeast display, Sf9 membrane polyspecificity reagent, FACS + sequencing; frameworks hold sequencing errors
Measured Property: polyreactivity (PSR sort gate)

QVQLVESGGGLVQAGGSLRLSCAASGSTFSYYAMGWYRQAPVKERELVAAITSGGGRTYYADSVKGRFTISRDNAKNTVYLQMNSLKPEDTAVYYCNALSTLYNGYDYWGQGTQVTVSS | high polyreactivity
QVQRVESGGGLVQAGGSLRLSCAASGLIFVVYAMGWYRQAPGKERELVADISSGGRTSYADSVKGRFTISRDNAKNTVYLQMNSLKPEDTAVYYCNAYPVFNQYYGWRYDYWGQGTQVTVSS | low polyreactivity
QVQLVESGGGLVQAGGSLRLSCAASGMIFSDYSMGWYRQATGKERELVATITRSVRTSYADSVKGRFTISSDNAKNTVYLQMNSLKPEDTAVYYCNADVVGAVIAFDYWGQGTQVTVSS | low polyreactivity
QVQLVESGGGLVQAGGSLRLSCAASGFIFDLYAMGWSRQAPGKERELVAVISFDGGSTYYADSVKGRFTISRDNAKNTVYLQMNSLKPEDTAVYYCNTYAGLVSPSDLYDYWGQGTQVTVSS | low polyreactivity
QVQLVESGGGLDQAGGSLRLSCAASGSIFYHNAMGWYRQAPGKERELVAAITGSGGSTYYADSVKWRFTISRDNAKNTFYLQMNSLKPEDTAVYYCAADYDYQYRYYYWGQGTQVTVSS | low polyreactivity

*Q* Entry QVQLVESGGGVVQAGGSLRLSCAASGFTFVRYTMGWYRQAPGKERELVAAITKRGGSTYYADSVKGRFTISRDNAKNTVYLQMNSLKPEDTAVYYCAAAVGNTDREYDYWGQGTQVTVSS needs its polyreactivity (PSR sort gate) filled in; supply it.
*A* low polyreactivity

*Q* Entry QVQLVESGVGLDQAGGSLRLSCAASGSTFWWNNMVCYRQAPGKERELVAAITTGGGTYYADSVKGRFTISRDNAKNSVYLQMNSLKPEDTAVYYCAATVRSYGWYAYHYSTYGYWGKGTQVTVSS needs its polyreactivity (PSR sort gate) filled in; supply it.
*A* low polyreactivity

*Q* Entry QVQLVESGGGLVQAGGSLRLSCAASGRIFPYNAMGWYRQAAGKERELVAAISLSGDSTYYADSVKGRFTISRDNAKNTVFLHMNSLKPEDTAVYYCNAPSYWYYPVLGSFLTFEYWGQGTQVTVSS needs its polyreactivity (PSR sort gate) filled in; supply it.
*A* low polyreactivity

*Q* Entry QVQLVESGGGLVQAGGSLRLSCAASGSTFGTYAMGWYRQAPGKERELVAAISNSGGSTYYADSVKGRFTISRDNAKNTVYLQMNSLKPEDTAVYYCNTDGLVRNGPFYSWGQGTQVTVSS needs its polyreactivity (PSR sort gate) filled in; supply it.
*A* low polyreactivity

*Q* Entry QVQLVESGGGLVQAGGSLRLSCAASGFIFTKYTMAWYRQAPGKERELVAAITGRGTSTSADSVKGRFTISRDNAKNTVYLQMNSLKPEDTAVYYCAAVGWFADFLFSDINGYYWGQGTQVTVSS needs its polyreactivity (PSR sort gate) filled in; supply it.
*A* low polyreactivity

*Q* Entry QVQLVESGGGIVQAGGSLRLSSAASGFIFRYYAMGWYRQARGNEREWVAAISSGGRTSYADSVKGRFTISRDNAKNTVYLQMNSLTPEDTAVYYCAADRWRCLFYYGNDYWGQGTQVTVSS needs its polyreactivity (PSR sort gate) filled in; supply it.
*A* high polyreactivity
